- experimental_details: physchem
- experimental_setup: pH 7.4 buffer
Please mark t if the recorded solubility thermodynamic is equal to or greater than 30 µM, and f if it falls below.

CN(CCOc1ccccc1-c1cc(C(N)=O)c(NC(N)=O)s1)Cc1ccccc1 :: f
CCSc1nc2c(N)ncnc2[nH]1 :: t
Nc1ccccc1NC(=O)c1ccc(N2CCOCC2)cc1 :: t
Cc1ccc(NC(=O)c2cccc(N3CCOCC3)c2)cc1-n1cnc2ccc(N3CCN(C)CC3)cc2c1=O :: t
C[C@H]1COCCN1c1cc(CS(C)(=O)=O)nc(-c2ccc3[nH]ccc3c2)n1 :: t

Threshold query (solubility thermodynamic >= 30 µM) on COCCN(C)C(=O)[C@@H](C)Oc1cccc2ncnc(Nc3ccc(Oc4ccc(C)nc4)c(C)c3)c12
f

Threshold query (solubility thermodynamic >= 30 µM) on CSCCC(NC(=O)c1sccc1Cl)c1nc2ccccc2[nH]1 (stereo not given)
f

Threshold query (solubility thermodynamic >= 30 µM) on COc1cc(N2CCN(C(C)=O)CC2)ccc1Nc1ncc(Cl)c(-c2cnc3c(CO)cccn23)n1
f

Threshold query (solubility thermodynamic >= 30 µM) on CC(C)(C)OC(=O)N1CCC(c2ncc(OCc3ccc(S(C)(=O)=O)cc3)cn2)CC1
t

Threshold query (solubility thermodynamic >= 30 µM) on Cc1ccnc(NC(=O)CSc2ccccn2)c1
t

---

- experimental_details: in vitro
- experimental_setup: Beagle, dog, plasma
Please mark yes (1) if the recorded fraction unbound at 5 h is equal to or greater than 0.04, and no (0) if it falls below.

Check out these entries, answers already filled in.
C[C@@]1(c2cc(-c3cncnc3)c(F)cc2F)CCSC(N)=N1 :: yes (1)
CCOc1noc2cc(OCCC3CCN(c4ccc(C)nn4)CC3)ccc12 :: no (0)
CC(C)n1c(/C=C/C(O)CC(O)CC(=O)O)c(-c2ccc(F)cc2)c2ccccc21 (configuration not stated) :: no (0)
O=C(Nc1ccc(Cl)c(S(=O)(=O)N2CCNCC2)c1O)Nc1cccc(F)c1Cl :: no (0)
COc1ccc2c(C)cc(N[C@H]3CC[C@H](NCc4cn(C)c5ccc(C#N)cc45)C3)nc2c1 :: no (0)

Threshold query (fraction unbound at 5 h >= 0.04) on N#Cc1ccc2ccc(=O)n(CCN3CC[C@@H](NCc4ccc5c(n4)NC(=O)CO5)[C@@H](F)C3)c2c1
yes (1)

Threshold query (fraction unbound at 5 h >= 0.04) on CCCCNC(=O)c1ccc(Oc2ccc(CC(=O)O)cc2OC)c(NS(=O)(=O)c2ccc(Cl)cc2Cl)c1
no (0)

Threshold query (fraction unbound at 5 h >= 0.04) on Cc1ccc(S(=O)(=O)Nc2c(C(=O)N[C@@H](C)C(C)(C)C)c(C)nn2C(C)C)cc1
yes (1)

---

- experimental_details: in vitro
- experimental_setup: human, plasma, PPB
Binning of fraction unbound at 5 h into classes: low end = under 0.01, middle = from 0.01 up to 0.05, high end = 0.05 and over

Check out these entries, answers already filled in.
CSCCC(NC(=O)c1cnccn1)c1nc2ccccc2[nH]1 (stereo not drawn) :: high end
C[C@H](CO)Nc1nc(SCc2ccccc2)nc2[nH]c(=O)sc12 :: low end
Cc1nc(C(=O)[C@H](C)Oc2ccc(SCCCCCc3ccccc3)cc2)sc1CCCC(=O)O :: low end
C[C@@H](NC1=CC(=O)CNC1)c1ccc(Nc2ncc3cc(-c4ccncc4)ccc3n2)cc1 :: middle

Classify this compound: CCOc1ccccc1-c1ccc(-c2nc3ccncc3c(O)c2C#N)cc1
low end

Classify this compound: Cc1cc(Nc2nc(N[C@@H](C)c3ccc(F)cn3)c(C#N)nc2C)n[nH]1
high end

Classify this compound: CO[C@H]1CC[C@]2(CC1)Cc1ccc(-c3cc(Cl)cc(C#N)c3)cc1C21N=C(C)C(N)=N1 (stereo partly drawn)
middle
